- Read-out: Intercellular Adhesion Molecule 1 (ICAM1), ICAM1 (gene 3383)
- Assay text: BSK_3C_ICAM1: BioMAP Diversity Plus: 3C Assay for Intercellular Adhesion Molecule 1 (ICAM1) Biomarker Activity (AID 2283003)
- Condition info: primary human endothelial cells (HUVEC); actives raise or lower the signal
Active and inactive are the calls of the source. The calls were made as follows: active = hit-call score of the fitted dose curve at least 0.9, where 1 is the maximum; inactive = score below 0.9.
Outcome codes: YES for active, NO for inactive

[
  {
    "Smiles input": "CC(C)(O)c1cnn2c(-c3ccc(F)c(-c4c(F)cccc4C#N)c3)cnc2n1",
    "Assigned label": "NO"
  },
  {
    "Smiles input": "[O-][Cl+]O",
    "Assigned label": "NO"
  },
  {
    "Smiles input": "CN(C)c1ccc(C(=O)c2ccc(N(C)C)cc2)cc1",
    "Assigned label": "NO"
  },
  {
    "Smiles input": "Nc1ccc([N+](=O)[O-])cc1",
    "Assigned label": "NO"
  },
  {
    "Smiles input": "O=C1CCCO1",
    "Assigned label": "NO"
  },
  {
    "Smiles input": "c1ccc2c(c1)-c1cccc3cccc-2c13",
    "Assigned label": "NO"
  },
  {
    "Smiles input": "O=[N+]([O-])c1ccc(Oc2ccc(Cl)cc2Cl)cc1",
    "Assigned label": "NO"
  },
  {
    "Smiles input": "Clc1ccc(Cl)c(Cl)c1",
    "Assigned label": "NO"
  },
  {
    "Smiles input": "Clc1ccc(C(c2ccc(Cl)cc2)C(Cl)(Cl)Cl)cc1",
    "Assigned label": "YES"
  },
  {
    "Smiles input": "CC(C)(C)OOC(C)(C)CCC(C)(C)OOC(C)(C)C",
    "Assigned label": "NO"
  },
  {
    "Smiles input": "Oc1ccccc1Cl",
    "Assigned label": "NO"
  },
  {
    "Smiles input": "O=C(Oc1ccc(Br)cc1)N1CCN2CCC1CC2",
    "Assigned label": "NO"
  },
  {
    "Smiles input": "CCC[CH2][Sn]([Cl])([CH2]CCC)[CH2]CCC",
    "Assigned label": "YES"
  },
  {
    "Smiles input": "Cc1ccc(N)c(N)c1",
    "Assigned label": "NO"
  }
]

meta.source: PubChem BioAssay (EPA / NIEHS)
